# EXPERIMENTAL TARGET: T1, TL1A in human blood (endogenous) (human, UniProt O95150 72-251, limits assumed)
# T1 sequence (looked up): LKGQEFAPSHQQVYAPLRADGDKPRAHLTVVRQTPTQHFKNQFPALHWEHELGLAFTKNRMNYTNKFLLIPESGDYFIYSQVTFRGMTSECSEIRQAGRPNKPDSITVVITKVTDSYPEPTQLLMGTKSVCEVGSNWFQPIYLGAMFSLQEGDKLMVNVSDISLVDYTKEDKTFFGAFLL
# METHOD: cell-based or functional assay
Kindly state % Inhibition at 10 nM Ig (inhibition of interferon gamma release in human blood) for each of the entries shown.
One number for each entry, in %.

Illustrative cases are given below, each with its answer.
BINDER: A147 (antibody, human IgG1, V domains shown) VH: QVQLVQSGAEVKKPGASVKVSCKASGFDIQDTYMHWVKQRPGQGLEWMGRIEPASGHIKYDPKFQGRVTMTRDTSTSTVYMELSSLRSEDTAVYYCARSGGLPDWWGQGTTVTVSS VL: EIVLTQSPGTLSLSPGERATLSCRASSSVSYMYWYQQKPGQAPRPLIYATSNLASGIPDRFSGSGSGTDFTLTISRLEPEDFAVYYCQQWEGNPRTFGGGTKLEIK
UNIT: %
MEASURED: 72.4

BINDER: A213 (antibody, human IgG1, V domains shown) VH: QVQLVQSGAEVKKPGASVKVSCKASGFDIQDTYMHWVRQRPGQGLEWMGRIDPASGHTKYDPKFQVRVTITTDTSTSTVYMELSSLRSEDTAVYYCARSGGLPDVWGQGTTVTVSS VL: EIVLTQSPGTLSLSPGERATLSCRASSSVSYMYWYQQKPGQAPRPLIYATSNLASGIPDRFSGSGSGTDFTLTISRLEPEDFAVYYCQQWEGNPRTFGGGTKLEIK
UNIT: %
MEASURED: 69.8

// query Entry A217 (antibody, human IgG1, V domains shown) VH: QVQLVQSGAEVKKPGASVKVSCKASGFDIQDTYMHWVKQRPGQGLEWMGRIDPASGHTKYDPKFQVRVTITRDTSTSTVYMELSSLRSEDTAVYYCARSGGLPDVWGQGTTVTVSS VL: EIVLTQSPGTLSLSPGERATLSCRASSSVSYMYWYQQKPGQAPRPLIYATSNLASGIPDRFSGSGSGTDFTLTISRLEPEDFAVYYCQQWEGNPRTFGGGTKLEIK : reported % Inhibition at 10 nM Ig (inhibition of interferon gamma release in human blood) = ?
// result 72.2
